Quick reference: Ratio Ki of the listed items.
Assay: Selectivity ratio of Ki for factor 10a to Ki for human recombinant factor 9a
experimental-endpoint: Ratio Ki

CN1CCN(Cc2ccc(NC(=O)OCC(Oc3cccc4sc(C(=N)N)cc34)c3ccccc3)cc2)CC1 (centres undefined) = 156
N=C(N)c1cc2c(OC(COC(=O)Nc3c(F)cccc3F)c3ccccc3)cccc2s1 (centres undefined) = 186
N=C(N)c1cc2c(OC(COC(=O)Nc3cccc(F)c3)c3ccccc3)cccc2s1 (centres undefined) = 52
CNCc1ccccc1NC(=O)OCC(Oc1cccc2sc(C(=N)N)cc12)c1ccccc1 (centres undefined) = 383
N=C(N)c1cc2c(OC(COC(=O)Nc3ccccc3CN)c3ccccc3)cc(F)cc2s1 (centres undefined) = 486
Cc1n[nH]c(C)c1NC(=O)OCC(Oc1cccc2sc(C(=N)N)cc12)c1ccccc1 (centres undefined) = 360
CN(C)Cc1ccccc1NC(=O)OCC(Oc1cc(F)cc2sc(C(=N)N)cc12)c1ccccc1 (centres undefined) = 169
COc1ccc(NC(=O)OC[C@H](Oc2cccc3sc(C(=N)N)cc23)c2ccccc2)cc1 = 200
COCc1cc(NC(=O)OCC(Oc2cccc3sc(C(=N)N)cc23)c2ccccc2)n(C)n1 (centres undefined) = 173
